# assayMethodText: NCI Yeast Anticancer Drug Screen. Data for the mlh1 rad18 strain (AID 175)
# condition: S. cerevisiae mlh1 rad18 strain growth inhibition; at 50.0 µM; hits give high values
Compounds without any hit were thinned out: in the full panel of roughly 79,000, 15% have a hit.
Reported growth inhibition is given for each of the following compounds.
Numeric only. Scale: %

For orientation, consider the following solved cases.
{"compound": "O=C1[C@H]2ON(c3ccccc3)C(c3ccc(Cl)cc3)[C@H]2C(=O)N1c1ccc(Cc2ccc(N3C(=O)[C@@H]4ON(c5ccccc5)C(c5ccc(Cl)cc5)[C@@H]4C3=O)cc2)cc1 (stereo not given in full)", "growth inhibition [%]": 7.6}
{"compound": "OCCNc1ncnc2nc[nH]c12", "growth inhibition [%]": 2.5}
{"compound": "c1ccc2sc(-c3nc4ccccc4s3)nc2c1", "growth inhibition [%]": 12.4}

Moving on to another compound below.
Qu. Please report the recorded growth inhibition for "C=CCCCCCCCCC(=O)NCc1cccnc1" .
Ans. 64

====

# assayMethodText: NCI Yeast Anticancer Drug Screen. Data for the mec2-1 strain (AID 157)
# condition: S. cerevisiae mec2-1 strain, at 50.0 µM, hits give high values
This is part of a sample that, as a whole, favours compounds with a hit. Of some 79,000 tested, about 15% had one in any assay.
Reported growth inhibition is given for each of the following molecules.
Numeric only. Scale: %

For orientation, consider the following solved cases.
{"molecule": "CC1=C(C(=O)Nc2ccccc2C)C(c2ccccc2)C(C(=O)Nc2ccccc2C)=C(C)N1", "unitAbbreviation": "%", "growth inhibition": 15.2}
{"molecule": "Cc1cc(C)c(NC(=O)Nc2ccc(C(Cl)(Cl)Cl)cc2)c(C)c1", "unitAbbreviation": "%", "growth inhibition": 11.5}
{"molecule": "CSC1=NC(C)(C)N=C(Oc2cc(Cl)cc(Cl)c2)N1", "unitAbbreviation": "%", "growth inhibition": -22.3}

Qu. Please report the recorded growth inhibition for "CN(C)NC1=NS(=O)(=O)c2cc3c(cc2S1)N(N(C)C)C(=O)c1cc2c(cc1N(N(C)C)C3=O)SC(NN(C)C)=NS2(=O)=O" .
Ans. -22.5

Qu. Queued: "CCOC(=O)/C(=C\c1ccc[nH]1)C(=O)c1ccccc1"
Ans. -5.9

Qu. Queued: "COC(=O)[C@]1(NC(=O)c2ccccc2)C[C@H]1C=O"
Ans. 15.2

Qu. Queued: "CC(C)(C)C(=O)NO"
Ans. -12.1

Qu. Queued: Cc1cn(CC(O)c2cc3ccccc3[nH]2)c(=O)[nH]c1=O (centres undefined)
Ans. 13.6

====

# assayMethodText: NCI Yeast Anticancer Drug Screen. Data for the mlh1 rad18 strain (AID 175)
# condition: S. cerevisiae mlh1 rad18 strain growth inhibition; at 50.0 µM
Compounds without any hit were thinned out: in the full panel of roughly 79,000, 15% have a hit. The source made the active and inactive calls. Cut-off read from the data, not from the text of the source: active = growth inhibition above about 70%; inactive = the rest.
One label from this list, please: active, inactive

// below: answered compounds
{"compound": "NC1(C(=O)O)CCCC1C(=O)O (stereo unspecified)", "assignedLabel": "inactive"}
{"compound": "CSC1=NC(C)(C)N=C(Oc2cc(Cl)cc(Cl)c2)N1", "assignedLabel": "inactive"}
{"compound": "CCCCCCCCCC(=O)OCCCC(CCCOC(=O)CCCCCCCCC)OC(=O)CCCCCCCCC", "assignedLabel": "inactive"}
{"compound": "O=C(NCCCCN1CCCC1)C(c1cc2ccccc2s1)C1CCCCC1 (stereo unspecified)", "assignedLabel": "inactive"}
{"compound": "ClC(Cl)(Cl)C(Cl)(Cl)C(Cl)(Cl)Cl", "assignedLabel": "inactive"}

# next compound below
Qu. Call for entry Cc1ccc(S(=O)(=O)NC(=O)c2ncn(C3OC(CO)C(O)C3O)c2N)cc1 (stereo unspecified) :
Ans. inactive

====

Reported growth inhibition is given for each of the following compounds.
# assayMethodText: NCI Yeast Anticancer Drug Screen. Data for the rad50 strain (AID 155);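 note: 0% = growth of vehicle-only cultures of the same strain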
# condition: S. cerevisiae rad50 strain growth inhibition; at 50.0 µM; hits give high values
Compounds without any hit were thinned out: in the full panel of roughly 79,000, 15% have a hit.
Numeric only. Scale: %

{"compound": "CCCCCN(CCCCC)c1ccc(/C=C/c2ccnc3ccccc23)cc1", "unitAbbreviation": "%", "numericResult": 1.6}
{"compound": "Cc1ccc(/C(C#N)=C/c2ccccc2)cc1", "unitAbbreviation": "%", "numericResult": 32.8}
{"compound": "O=C(NN1C(=O)C(Cl)C1c1cccc([N+](=O)[O-])c1)c1ccccc1O (centres undefined)", "unitAbbreviation": "%", "numericResult": -17.4}
{"compound": "C[N+]1(CC(O)c2ccccc2)CCCC1 (centres undefined)", "unitAbbreviation": "%", "numericResult": 3.55}
{"compound": "N#CC(NNC(=O)c1ccccc1O)c1cccc(O)c1 (centres undefined)", "unitAbbreviation": "%", "numericResult": 10.8}

Qu. Please report the recorded growth inhibition for "Cc1ccc(-c2nnc(NC(=O)Nc3ccc(Cl)cc3)o2)cc1" .
Ans. 3.15

Qu. Queued: COC(=O)C1CN=CN1CCc1ccccc1 (centres undefined)
Ans. -2.05

Qu. Queued: NC(=O)c1csc(C2O[C@@H](COP(=O)(O)OP(=O)(O)OC[C@H]3OC(n4cnc5c(N)ncnc54)[C@H](O)[C@@H]3O)[C@H](O)[C@@H]2O)n1 (some centres undefined)
Ans. 28.8

Qu. Queued: O=C(/C=C/CBr)NC(Cc1ccccc1)C(=O)O (centres undefined)
Ans. -1.45

Qu. Queued: CC(C)[C@@H]1C=C(c2ccccc2)c2ccccc2C1C(C#N)(C#N)C(C)C (some centres undefined)
Ans. -30.2

====

# assayMethodText: NCI Yeast Anticancer Drug Screen. Data for the bub3 strain (AID 167)
# condition: S. cerevisiae bub3 mutant strain, at 50.0 µM
About 79,000 compounds went through this panel and 15% of them were active in at least one assay; those are over-represented in the sample as a whole. Calls of active or inactive are those of the source. No stated cut-off is given here; in the data, active means growth inhibition above about 70%; inactive means the rest.
One label from this list, please: TRUE (active), FALSE (inactive)

{"molecule": "CN1CCCC1=Nc1ccc([N+](=O)[O-])cc1", "assignedLabel": "FALSE"}
{"molecule": "O=C(O)c1cc(Cl)c(Cl)s1", "assignedLabel": "FALSE"}
{"molecule": "CCCCCCCCCCCCOC1C(COCCN2CCCCC2)OC2OC(C)(C)OC21 (configuration not stated)", "assignedLabel": "TRUE"}
{"molecule": "CCS(=O)(=O)CC(C)O (configuration not stated)", "assignedLabel": "FALSE"}
{"molecule": "CCOC(=O)CNCc1cccc(Cl)c1", "assignedLabel": "FALSE"}
{"molecule": "CCc1cc2c(c3c1CCC3=O)CC1(Cc3ccc(C)cc3C1)C2 (configuration not stated)", "assignedLabel": "FALSE"}

# next molecule below
Qu. Call for entry "COc1nc2nccc-2c2occn12" :
Ans. FALSE

====

# assayMethodText: NCI Yeast Anticancer Drug Screen. Data for the bub3 strain (AID 167)
# condition: S. cerevisiae bub3 mutant strain, at 50.0 µM, hits give high values
This is part of a sample that, as a whole, favours compounds with a hit. Of some 79,000 tested, about 15% had one in any assay.
observationType: growth inhibition (%)
Numeric only. Scale: %

For orientation, consider the following solved cases.
{"compound": "CN(C)C=NC1CC(C)(C)NC(C)(C)C1", "growth inhibition, %": 13.2}
{"compound": "CC(C)(C)c1ccc(Oc2nc(Oc3ccc(C(C)(C)C)cc3)nc(Oc3ccc(C(C)(C)C)cc3)n2)cc1", "growth inhibition, %": -1.85}
{"compound": "N#CC(c1ccc(Cl)cc1)c1cccc(C(C#N)c2ccc(Cl)cc2)n1 (configuration not stated)", "growth inhibition, %": 38.4}
{"compound": "O=C1OC(=O)C2C1C1c3ccccc3C2(Br)c2ccccc21 (configuration not stated)", "growth inhibition, %": 3.55}
{"compound": "COc1cc(C=Nc2ccc(Cl)cc2)ccc1O", "growth inhibition, %": -24.9}

Qu. Please report the recorded growth inhibition for "CN(C)CN1CSC(=S)N(CN(C)C)C1" .
Ans. -5

Qu. Queued: "CCN(CC)CCCO"
Ans. -4.6

Qu. Queued: "CCN(CC)CCCNc1c2c(nc3ccc(Cl)cc13)CCCC2"
Ans. -11.8

Qu. Queued: COC1OC(C(C)Br)C2OC(C)(C)OC12 (configuration not stated)
Ans. 9.85

====

# assayMethodText: NCI Yeast Anticancer Drug Screen. Data for the rad50 strain (AID 155);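 note: 0% = growth of vehicle-only cultures of the same strain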
# condition: S. cerevisiae rad50 strain growth inhibition; at 50.0 µM
About 79,000 compounds went through this panel and 15% of them were active in at least one assay; those are over-represented in the sample as a whole. Activity calls are given as the source filed them. Rule as the data show it: active = growth inhibition above about 70%; inactive = the rest.
One label from this list, please: true (active), false (inactive)

// below: answered compounds
{"compound": "CC(C)(C)OC(=O)Cc1c[nH]c2ccccc12", "assignedLabel": "false"}
{"compound": "Nc1nc2c(c(-c3ccccc3Cl)n1)COC/C2=C\\c1ccccc1Cl", "assignedLabel": "false"}

Qu. Call for entry "CCOc1ccc2ccccc2c1N" :
Ans. false
